# pIC50 values compiled below
Test: Inhibition of beta lactamase OXA-48 in Klebsiella pneumoniae assessed as decrease in enzyme activity using nitrocefin as chromogenic substrate incubated for 60 mins by absorbance plate reader analysis
Hey, just a heads up that pIC50 is the negative log base 10 of the concentration in molar.

compound	readout value
CC1=C[C@@H](C(N)=O)N2C[C@@H]1N(O[C@H](F)C(=O)O)C2=O	7.15
CC1=C[C@@H]2CN(C(=O)N2O[C@@H](F)C(=O)O)[C@@H]1C(=O)NCCS(N)(=O)=O	6.39
CC1=C[C@@H]2CN(C(=O)N2O[C@@H](F)C(=O)O)[C@@H]1c1nnc(C(N)=O)o1	8.14

Asked: In one line, give reported pIC50 of the entry CC1=C[C@@H]2CN(C(=O)N2O[C@@H](F)C(=O)O)[C@@H]1C(=O)NC1COC1 .
Given back: 7.92

Asked: Retrieve pIC50 measured for CC1=C[C@@H]2CN(C(=O)N2OS(=O)(=O)O)[C@@H]1C(N)=O and print it.
Given back: 8.30

Asked: Return pIC50 (reported value) for this compound: CC1=C[C@@H]2CN(C(=O)N2O[C@@H](F)C(=O)O)[C@@H]1C(=O)NOCC1CC1
Given back: 7.06

Asked: Determine from records and report pIC50 for CC1=C[C@@H]2CN(C(=O)N2OCC(=O)O)[C@@H]1C(N)=O
Given back: 7.29

Asked: Respond only with pIC50 recorded for CC1=C[C@@H]2CN(C(=O)N2O[C@@H](F)C(=O)O)[C@@H]1C(=O)NCCNS(N)(=O)=O
Given back: 6.38

---

Tested on: Escherichia coli
Experiment: Inhibition of beta-lactamase activity in Escherichia coli ARC3627 assessed as MIC for cefpodoxime antibacterial activity at 4 ug/ml by CLSI based broth dilution method (Rvb >64 ug/ml)
Conditions: dose 4.0 µg/ml
measured attribute: MIC

molecule	MIC
CC1=C[C@@H]2CN(C(=O)N2OC(C)(F)C(=O)O)[C@@H]1C(N)=O (stereo partly specified)	2 µg/mL
CC1=C[C@@H](C(N)=O)N2C[C@@H]1N(O[C@H](F)C(=O)O)C2=O	< 0.06 µg/mL
CC1=C[C@@H]2CN(C(=O)N2O[C@@H](F)C(=O)O)[C@@H]1C(N)=O	1 µg/mL

Asked: Assign MIC to the following record: NC(=O)[C@@H]1C(C2CC2)=C[C@@H]2CN1C(=O)N2OC(F)C(=O)O (single isomer, unassigned)
Given back: 2 µg/mL

Asked: Quickly give me recorded MIC for CC1=C[C@@H](C(N)=O)N2C[C@@H]1N(OCC(=O)O)C2=O
Given back: < 0.06 µg/mL

Asked: Retrieve MIC measured for CC1=C[C@@H]2CN(C(=O)N2O[C@@H](F)C(=O)O)[C@@H]1c1nnc(C(N)=O)o1 and print it.
Given back: 2 µg/mL

Asked: Determine from records and report MIC for CC1=C[C@@H]2CN(C(=O)N2O[C@@H](F)C(=O)O)[C@@H]1C(=O)NC1COC1
Given back: > 32 µg/mL

Asked: Give MIC for the following molecule: CC1=C[C@@H](C(N)=O)N2C[C@@H]1N(O[C@@H](F)C(=O)O)C2=O (racemic)
Given back: < 0.06 µg/mL

Asked: Read off the recorded MIC for CC1=C[C@@H]2CN(C(=O)N2O[C@@H](F)C(=O)O)[C@@H]1C(=O)NCCS(N)(=O)=O
Given back: < 0.06 µg/mL

---

Test: Inhibition of beta lactamase AmpC in Pseudomonas aeruginosa assessed as decrease in enzyme activity using nitrocefin as chromogenic substrate incubated for 10 mins by […] plate reader analysis
pIC50: −log10 of the molar value.
Binary call on pIC50: fulfilled from 6 upward, not fulfilled beneath that.

The examples below pair each entry with its known result.
smiles repr	group
CC1=C[C@@H]2CN(C(=O)N2OCC(=O)O)[C@@H]1C(N)=O	not fulfilled
CC1=C[C@@H]2CN(C(=O)N2OS(=O)(=O)O)[C@@H]1C(N)=O	fulfilled
CC1=C[C@@H]2CN(C(=O)N2OC(F)(F)C(=O)O)[C@@H]1C(N)=O	fulfilled

With those in mind, consider the next compound.
Asked: Say whether CC1=C[C@@H]2CN(C(=O)N2O[C@@H](F)C(=O)O)[C@@H]1C(N)=O shows pIC50 of 6 or more.
Given back: fulfilled

---

Assay: Volume of distribution at steady state in Sprague-Dawley rat at 10 mg/kg, iv by LC/MS/MS analysis
Type: ADME, organism-based
Settings: in vivo, read-out: Vdss
measured attribute: Vd (L/kg)
Give the number; L/kg is assumed, so skip it.

Asked: For CC1=C[C@H](C(N)=O)N2C[C@@H]1N(O[C@H](F)C(=O)O)C2=O , write its Vd.
Given back: 0.7

---

Experiment: Inhibition of beta lactamase AmpC in Pseudomonas aeruginosa assessed as decrease in enzyme activity using nitrocefin as chromogenic substrate incubated for 10 mins by […] plate reader analysis
Overview of reported pIC50 across a group of compounds:
A value of pIC50 is the negative decimal logarithm of a concentration given in moles per litre.

compound	pIC50
CC1=C[C@@H]2CN(C(=O)N2O[C@@H](F)C(=O)O)[C@@H]1c1nnc(C(N)=O)o1	6.44
CC1=C[C@@H]2CN(C(=O)N2O[C@@H](F)C(=O)O)[C@@H]1C(=O)NCCNS(N)(=O)=O	7.28
NC(=O)[C@@H]1C(C2CC2)=C[C@@H]2CN1C(=O)N2OC(F)C(=O)O (single isomer, unassigned)	6.54
CC1=C[C@@H](C(N)=O)N2C[C@@H]1N(OCC(=O)O)C2=O	4.85
CC1=C[C@@H]2CN(C(=O)N2O[C@@H](F)C(=O)O)[C@@H]1C(=O)NCCS(N)(=O)=O	7.66

Asked: Item CC1=C[C@@H]2CN(C(=O)N2O[C@H](F)C(=O)O)[C@@H]1C(N)=O : provide pIC50
Given back: 7.39

Asked: Fill in reported pIC50 for this entry: CC1=C[C@@H](C(N)=O)N2C[C@@H]1N(O[C@H](F)C(=O)O)C2=O
Given back: 6.35

Asked: Complete the entry with pIC50 for CC1=C[C@@H]2CN(C(=O)N2O[C@@H](F)C(=O)O)[C@@H]1C(=O)NC1COC1
Given back: 6.59

---

Assay: Inhibition of bacterial TEM-1 assessed as equilibrium constant using nitrocefin as chromogenic substrate by absorbance plate reader analysis
measured attribute: Ki (nM)
Please give a number only; it is taken to be in nM.

Asked: Write down Ki measured for item CC1=C[C@H](C(N)=O)N2C[C@@H]1N(O[C@H](F)C(=O)O)C2=O
Given back: 0.34

---

Assay: Oral bioavailability in Sprague-Dawley rat at 10 mg/kg by LC/MS/MS analysis
Type: ADME, organism-based
Settings: in vivo
# maps each entry to its bioavailability
// units = %; emit number, no label

smiles repr	output unit	readout value
CCOC(=O)[C@H](F)ON1C(=O)N2C[C@H]1C=C(C)[C@H]2C(=O)NCCS(N)(=O)=O	%	4
CC1=C[C@@H](C(N)=O)N2C[C@@H]1N(O[C@H](F)C(=O)OC(C)C)C2=O	%	98

Next compound, bioavailability to be filled in.
Asked: # return recorded bioavailability for entry CCOC(=O)[C@@H](F)ON1C(=O)N2C[C@H]1C(C)=C[C@H]2C(N)=O
Given back: 75

---

Each entry below carries its reported pIC50.
Test: Inhibition of beta lactamase AmpC in Pseudomonas aeruginosa assessed as decrease in enzyme activity using nitrocefin as chromogenic substrate incubated for 60 mins by […] plate reader analysis
# log scale: pIC50 equals minus log10 of the concentration in mol/L

Asked: Dear colleague, please send me the reported pIC50 for CC1=C[C@@H]2CN(C(=O)N2OC(F)(F)C(=O)O)[C@@H]1C(N)=O when you can.
Given back: 7.92

Asked: Provide pIC50 value for the following compound: CC1=C[C@@H](C(N)=O)N2C[C@@H]1N(OCC(=O)O)C2=O
Given back: 5.34

Asked: Using known records, supply pIC50 for CC1=C[C@@H]2CN(C(=O)N2O[C@@H](F)C(=O)O)[C@@H]1C(=O)NCCS(N)(=O)=O
Given back: 8.39

Asked: Name the recorded pIC50 of the compound listed here: CC1=C[C@@H]2CN(C(=O)N2OC(C)(F)C(=O)O)[C@@H]1C(N)=O (stereo partly specified)
Given back: 6.40

Asked: Tell us which pIC50 value is on record for CC1=C[C@@H]2CN(C(=O)N2O[C@H](F)C(=O)O)[C@@H]1C(N)=O
Given back: 7.96

Asked: // fetch pIC50 given entry NC(=O)[C@@H]1C(C2CC2)=C[C@@H]2CN1C(=O)N2OC(F)C(=O)O (single isomer, unassigned)
Given back: 7.02

---

Tested on: Klebsiella pneumoniae
Test: Inhibition of beta-lactamase activity in Klebsiella pneumoniae ARC561 assessed as MIC for cefpodoxime antibacterial activity at 4 ug/ml by CLSI based broth dilution method (reference value: 32 ug/ml)
Settings: dose 4.0 µg/ml
Reported MIC is given for each of the following molecules.

Solved cases below.
molecule	MIC
CC1=C[C@@H]2CN(C(=O)N2O[C@H](F)C(=O)O)[C@@H]1C(N)=O	0.25 µg/mL
CC1=C[C@@H]2CN(C(=O)N2OCC(=O)O)[C@@H]1C(N)=O	2 µg/mL
CC1=C[C@@H]2CN(C(=O)N2O[C@@H](F)C(=O)O)[C@@H]1C(=O)NC1COC1	4 µg/mL

// below: MIC requested for another molecule
Asked: Quick one: give measured MIC for CC1=C[C@@H]2CN(C(=O)N2OC(C)(F)C(=O)O)[C@@H]1C(N)=O (stereo not given in full)
Given back: 2 µg/mL
